# PROCEDURE TEXT: Pharmacokinetic profile in mice after I.V. injection (LC-MS/MS of plasma, brain, liver, kidney)
# Assay type: in vivo, mouse
# PROTOCOL CONDITIONS: male, C57BL/6, mouse, plasma, iv, 200 mg/kg, 200 mg/kg I.V.
MEASUREMENT TYPE: clearance (mL/min)
Provide only the numeric value, understood in mL/min.

// query Specify measured clearance for COc1cc(CC(=O)Nc2cc(C3CCC3)[nH]n2)cc(OC)c1OC .
// result 7.17

====

# TARGET DESC: Cdk2/CyclinE (Homo sapiens)
# PROCEDURE TEXT: In vitro dose-response kinase inhibition assay
# PROTOCOL CONDITIONS: 30 min, ATP 30 μM; read-out: Ki CDK2/Cyclin E
# Protocol: In vitro phosphorylation reactions were conducted as dose-response kinase inhibition assays with three highly homologous CDKs, namely, Cdk2/CyclinE (1.5 nM), CDK5/p25 (0.35 nM), and Cdk9/CyclinT1 (9 nM). Briefly, the abovementioned kinases were incubated with ATP (30 μM), the corresponding substrate (20 μM), and an increasing concentration of 25–106 (0–5 μM) for 30 min.
MEASUREMENT TYPE: Ki (nM)
Provide only the numeric value, understood in nM.

// query Specify measured Ki for COc1cc(CC(=O)Nc2cc(C3CCC3)[nH]n2)cc(OC)c1OC .
// result 89
